OBSERVED PROPERTY: flash point (°C)

- COMPOUND: "CCC#N [Propanenitrile]"
  OBSERVED PROPERTY: "flash point"
  UNITS OF MEASURE: "°C"
  EXPERIMENTAL VALUE: 6.0
- COMPOUND: "CCCC(=O)CCC [4-Heptanone]"
  OBSERVED PROPERTY: "flash point"
  UNITS OF MEASURE: "°C"
  EXPERIMENTAL VALUE: 34.0
- COMPOUND: "CCCCCC [n-HEXANE]"
  OBSERVED PROPERTY: "flash point"
  UNITS OF MEASURE: "°C"
  EXPERIMENTAL VALUE: -21.6

(1) CCCCCCCCCCCCCCO [1-TETRADECANOL]
(2) CCCCCCCC(C)=O [2-NONANONE]
(3) Cc1cccc(C)c1C [1,2,3-TRIMETHYLBENZENE]
(4) C=CCCCCCCC [1-Nonene]
(5) CCC=O [Propionaldehyde]
Please give the order of these compounds when sorted by flash point, largest value leading. Put the labels in the requested order and write them down. 1, 2, 3, 4, 5
(1: 143 °C, 2: 64.0 °C, 3: 44.0 °C, 4: 26.0 °C, 5: -29.9 °C)
